Ref: PubChem BioAssay AID2060483

# viability, T/C annotations
Tested on: K24384-001-R-PDC complex spheroids, viability;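 note: spheroids exposed to compounds for seven days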
Assay: Anticancer human tumor K24384-001-R-PDC patient-derived pancreatic adenocarcinoma cell line growth inhibition [GQUAD]
Conditions: second compound 1 µM; first compound 0.1 µM; hits give low values
# output: bare number, implied unit %

A selection of reference data follows.
INSERT INTO assay_data (compound, observed) VALUES
  ('O=C(c1cc(Cc2n[nH]c(=O)c3ccccc23)ccc1F)N1CCN(C(=O)C2CC2)CC1 + CN(C)c1ccc(Nc2c3ccc(NC(=O)CCN4CCCC4)cc3nc3cc(NC(=O)CCN4CCCC4)ccc23)cc1', 103),
  ('O=c1[nH]cc(F)c(=O)[nH]1 + Cc1cnc(CNC(=O)c2c(=O)c3ccc(N4CCCN(C)CC4)nc3n3c2sc2ccccc23)cn1', 46.4);

Below: the item to evaluate.
Which viability, T/C is listed for COc1ccc([C@@H](O)c2cc(-c3ncnc4cc(N5CCOCC5)ccc34)c(F)cc2Cl)nn1 + CN(C)c1ccc(Nc2c3ccc(NC(=O)CCN4CCCC4)cc3nc3cc(NC(=O)CCN4CCCC4)ccc23)cc1 ? 83.1
